Recorded cytotoxicity at 70.5 h, one value per entry.
- Method: Human HepG2 cell viability assay in 384 well format
- Format: toxicity, cell-based
- Parameters: dose 125 nL, time 70.5 hour; concentration not given beside the values
- Assay setup: HepG2 cells, read-out: Inhibition
Attribute measured: cytotoxicity at 70.5 h (%)

• O=C(C1CCS(=O)(=O)CC1)N1CCC(Cc2ccc(F)cc2)CC1 = 3.44
• Cc1oc(-c2ccco2)nc1CNC1CCCN(c2cccnn2)C1 (stereo unspecified) = -9.89
• c1ncn(Cc2cn3c(n2)CN(CC2CCCC2)CC3)n1 = 1.84
• COc1cc(-c2n[nH]c(CC#N)n2)cc(OC)c1OC = 51.6
• NC(=O)c1ccc(NC2CCOC3(CCCC3)C2)nn1 (stereo unspecified) = 17.2
• CC(C)c1nnc(CN2CCCC(c3cc(C(N)=O)[nH]n3)C2)o1 (stereo unspecified) = 26.9
